Procedure details: Binding affinity against human monofunctional glycinamide ribonucleotide formyl transferase (GARFT).
Observed property: pKi
pKi field: float, defined as -log10 of concentration (mol/L).

Given item Nc1ncc(CCCCc2ccc(C(=O)N[C@@H](CCC(=O)O)C(=O)O)cc2)c(N)n1 , the value recorded as its pKi is 4.21

* * *

Test system: Thymidylate synthase (Homo sapiens)
Sequence (P04818 whole entry): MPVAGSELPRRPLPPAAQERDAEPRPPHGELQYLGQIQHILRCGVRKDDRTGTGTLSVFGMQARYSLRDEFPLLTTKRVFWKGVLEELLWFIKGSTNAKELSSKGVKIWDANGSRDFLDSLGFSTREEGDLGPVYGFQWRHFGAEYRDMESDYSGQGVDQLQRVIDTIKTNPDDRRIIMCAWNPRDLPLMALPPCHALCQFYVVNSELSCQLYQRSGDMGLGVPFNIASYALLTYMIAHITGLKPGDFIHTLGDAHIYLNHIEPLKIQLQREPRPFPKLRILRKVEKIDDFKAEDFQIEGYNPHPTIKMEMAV
Procedure details: Binding affinity against Recombinant human thymidylate synthase (TS)
pKi: −log10 of the molar value.
Observed property: pKi

Value of measured pKi for the entry Nc1ncc(CCCc2ccc(C(=O)N[C@@H](CCC(=O)O)C(=O)O)cc2)c(N)n1 : < 5.30

* * *

Test system: Dihydrofolate reductase (Homo sapiens)
Sequence (P00374 whole entry): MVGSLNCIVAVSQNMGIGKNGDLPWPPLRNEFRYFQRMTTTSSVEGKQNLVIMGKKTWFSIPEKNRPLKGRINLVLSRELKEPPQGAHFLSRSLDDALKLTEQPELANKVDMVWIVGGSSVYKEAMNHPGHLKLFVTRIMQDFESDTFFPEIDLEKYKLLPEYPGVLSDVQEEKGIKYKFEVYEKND
Procedure details: Binding affinity against Recombinant human dihydrofolate reductase (DHFR)
Observed property: Ki (nM)
The reply should be a number in nM, with the unit left off.

Notebook: Nc1ncc(CCCCc2ccc(C(=O)N[C@@H](CCC(=O)O)C(=O)O)cc2)c(N)n1 , Ki read as 0.005

response.value for Nc1ncc(CCCc2ccc(C(=O)N[C@@H](CCC(=O)O)C(=O)O)cc2)c(N)n1 (field: Ki) = 0.12
